Test system: SK-MEL-5 melanoma
Assay: NCI tumour cell line growth inhibition, 48 h; in the data active = GI50 below about 0.43 µM; inactive = the rest
Choose the fitting class; nothing outside active, inactive is accepted.

> print(dat)
                                   molecule   target.or.system  assigned.label
1  Cn1cc(C2=C(c3cn(C)c4cc(N)ccc34)C(=O)NC2=O)c2ccccc21  SK-MEL-5 melanoma        inactive
2        N=c1ccc2nc3c(cc(N)c4ccccc43)oc-2c1  SK-MEL-5 melanoma          active

Turning now to a further record.
[ask] Given COc1cc(/C=C2\CC3C4CC=C5C[C@@H](O)CC[C@]5(C)C4CC[C@]3(C)C2=O)ccc1OCCCn1ccnc1 (stereo partly drawn) , state the outcome it received in this test.
[reply] inactive

----------
System: HS 578T breast
Assay: NCI tumour cell line growth inhibition, 48 h; in the data active = GI50 below about 0.43 µM; inactive = the rest
Choose the fitting class; nothing outside y = active, n = inactive is accepted.

> print(dat)
                    structure.smiles.string  assigned.label
1  COc1cc(/C=C2\CN(C(=O)CCN3CCC(=NO)CC3)C/C(=C\c3cc(OC)c(OC)c(OC)c3)C2=O)cc(OC)c1OC               n
2  CC(=O)c1cccc(-c2cccc(-c3ccn(CCN4CCOCC4)n3)c2)c1               n
3  CCCCCCNC(=O)Oc1ccc(/C(=C(/C)Cc2ccc(OC)cc2)c2ccc(OCCN(C)C)cc2)cc1               n
4  COC(=O)c1cc(-c2ccc(OC)cc2)[nH]c1N/N=C/c1c(Cl)cccc1Cl               y

[ask] Given COC(=O)c1ccc2c(c1)C(=O)c1c-2n(CCCN)c(=O)c2cc(OC)c(OC)cc12 , state the outcome it received in this test.
[reply] n

[ask] Given C[C@]12CC[C@@H](OC(=O)N(CCCl)N=O)C[C@@H]1CC[C@@H]1[C@@H]2CC[C@]2(C)C(=O)CC[C@@H]12 , state the outcome it received in this test.
[reply] n

[ask] Given COc1cc2c(c(OC)c1OC)-c1ccc(O)c(=O)cc1[C@@H](NC(C)=O)CC2 , state the outcome it received in this test.
[reply] n

[ask] Given CNCCNc1nc2ccccc2c2c(=O)c3cc(F)ccc3sc12 , state the outcome it received in this test.
[reply] n

[ask] Given C/C(=C(/c1ccc(O)cc1)c1ccc(Cl)cc1)c1ccccc1 , state the outcome it received in this test.
[reply] n

----------
Tested on: CAKI-1 renal
Assay: NCI tumour cell line growth inhibition, 48 h; in the data active = GI50 below about 0.43 µM; inactive = the rest
Choose the fitting class; nothing outside active, inactive is accepted.

> print(dat)
                                   compound  assigned.label
1  COC(=O)c1cc(-c2ccc(OC)cc2)[nH]c1N/N=C/c1c(Cl)cccc1Cl          active
2  CS(=O)(=O)[O-].CS(=O)(=O)[O-].NC1CCCCC1N.[Pt+4] (stereo not given)        inactive
3  N=C(N)c1ccc(-c2ccc(-c3cc(Cl)cc(Cl)c3)o2)o1        inactive

[ask] Given CCOC(=O)Nc1nc2cc(OCC)ccc2s1 , state the outcome it received in this test.
[reply] inactive

[ask] Given COc1cc(/C=C2\CN(C(=O)CCN3CCC(=NO)CC3)C/C(=C\c3cc(OC)c(OC)c(OC)c3)C2=O)cc(OC)c1OC , state the outcome it received in this test.
[reply] inactive
